FYI, the data here is from ChEMBL document CHEMBL1125312.

Listing: pIC50 of selected molecules
Protein target, amino acids: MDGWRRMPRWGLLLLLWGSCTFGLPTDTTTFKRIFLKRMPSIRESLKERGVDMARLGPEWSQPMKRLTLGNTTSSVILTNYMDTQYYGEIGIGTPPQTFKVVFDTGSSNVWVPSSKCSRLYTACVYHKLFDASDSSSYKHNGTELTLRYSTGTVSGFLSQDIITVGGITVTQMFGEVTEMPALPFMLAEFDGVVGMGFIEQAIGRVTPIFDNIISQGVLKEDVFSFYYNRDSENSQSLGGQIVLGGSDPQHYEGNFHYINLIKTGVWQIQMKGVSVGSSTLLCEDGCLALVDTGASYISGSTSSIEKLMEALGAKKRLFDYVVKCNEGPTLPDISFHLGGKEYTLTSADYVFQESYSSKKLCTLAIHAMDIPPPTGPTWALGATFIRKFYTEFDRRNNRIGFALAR
pIC50: −log10 of the molar value.

{"molecule": "CC(C)CC1CCC(=O)OC[C@H](NC(=O)C(Cc2ccccc2)NC(=O)OC(C)(C)C)C(=O)N[C@@H](CC2CCCCC2)[C@@H](O)C(=O)O1 (single isomer, unassigned; diastereomer 1)", "pIC50": 8.41}
{"molecule": "CC(C)(C)OC(=O)NC(Cc1ccccc1)C(=O)N[C@H]1CCC(=O)OCCOC(=O)[C@H](O)[C@H](CC2CCCCC2)NC1=O (single isomer, unassigned; diastereomer 1)", "pIC50": 6.08}
{"molecule": "CC(C)(C)OC(=O)NC(Cc1ccccc1)C(=O)N[C@H]1CCC(=O)OCCCOC(=O)[C@H](O)[C@H](CC2CCCCC2)NC1=O (single isomer, unassigned; diastereomer 1)", "pIC50": 5.74}
